Item-by-item account of inhibition at 1 µM
biological target: FAAH (Mus musculus, UniProt O08914); assay: In vitro competitive activity-based protein profiling, FAAH, mouse; settings: read-out: FAAH % inh. 1 μM (mouse)
Sequence (O08914 whole entry): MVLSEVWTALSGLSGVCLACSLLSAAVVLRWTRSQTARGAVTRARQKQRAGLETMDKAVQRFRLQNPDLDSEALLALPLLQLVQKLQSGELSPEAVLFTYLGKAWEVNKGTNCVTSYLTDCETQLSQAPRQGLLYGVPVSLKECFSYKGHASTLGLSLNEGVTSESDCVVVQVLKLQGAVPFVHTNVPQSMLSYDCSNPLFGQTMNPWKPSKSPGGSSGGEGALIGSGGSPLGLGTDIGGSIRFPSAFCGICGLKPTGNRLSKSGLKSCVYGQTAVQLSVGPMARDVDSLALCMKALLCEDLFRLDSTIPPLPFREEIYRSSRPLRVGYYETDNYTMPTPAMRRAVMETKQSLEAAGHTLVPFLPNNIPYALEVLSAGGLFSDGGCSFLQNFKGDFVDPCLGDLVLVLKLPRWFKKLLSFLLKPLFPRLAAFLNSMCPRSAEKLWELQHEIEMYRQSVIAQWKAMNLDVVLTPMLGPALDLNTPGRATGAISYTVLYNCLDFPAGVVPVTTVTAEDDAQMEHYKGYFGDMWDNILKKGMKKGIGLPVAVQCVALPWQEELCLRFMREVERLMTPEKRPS

Check out these entries, answers already filled in.
| COMPOUND_STRUCTURE_STRING | inhibition at 1 µM |
| --- | --- |
| O=C(O)c1ccn(C(=O)N2CCN(Cc3cccc(Oc4ccc(C(F)(F)F)cn4)c3)CC2)n1 | > 75% |
| Cc1ccc(CN2CCC3(CCN(C(=O)n4ccc(C(=O)O)n4)CC3)C2)cc1Cl | 0 to 25% |
| O=C(O)c1ccn(C(=O)N2CCN(Cc3cccc(Oc4ccc(Cl)cc4)c3)CC2)n1 | > 75% |

stdin: Specify inhibition at 1 µM for O=C(O)c1ccn(C(=O)N2CCC3(CCN(Cc4ccc(C(F)(F)F)cc4Cl)C3)CC2)n1 and stop.
stdout: 0 to 25%

----------
Each item that follows carries a reported inhibition at 1 µM.
target: MAGL (Mus musculus); assay: In vitro competitive activity-based protein profiling, MAGL, mouse; conditions: read-out: MAGL % inh. 1 μM (mouse)
Sequence (O35678 whole entry): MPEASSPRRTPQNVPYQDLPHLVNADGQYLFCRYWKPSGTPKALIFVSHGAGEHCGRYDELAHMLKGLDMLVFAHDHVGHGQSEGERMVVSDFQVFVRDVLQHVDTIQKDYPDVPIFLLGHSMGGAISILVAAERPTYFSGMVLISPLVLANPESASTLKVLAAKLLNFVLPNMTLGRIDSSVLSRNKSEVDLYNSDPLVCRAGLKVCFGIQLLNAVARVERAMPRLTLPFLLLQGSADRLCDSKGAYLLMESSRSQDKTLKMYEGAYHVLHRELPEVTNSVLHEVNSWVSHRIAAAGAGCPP

| COMPOUND | READOUT_LABEL | MEASURED_VALUE |
| --- | --- | --- |
| NC(=O)c1ccn(C(=O)N2CCC3(CCCN3Cc3cc4ccc(C(F)(F)F)cc4s3)CC2)n1 [Example 22] | inhibition at 1 µM | > 75% |
| O=C(O)c1nn(C(=O)N2CCC3(CCN(Cc4cc(Cl)ccc4C(F)(F)F)C3)CC2)cc1Cl [Example 133] | inhibition at 1 µM | > 75% |
| COC1CCN(c2cc(C(F)(F)F)ccc2CN2CCN(C(=O)n3ccc(C(=O)O)n3)CC2)CC1 [Example 12] | inhibition at 1 µM | > 75% |
| O=C(O)c1nn(C(=O)N2CCN(Cc3ccc(-c4nnn[nH]4)cc3C(F)(F)F)CC2)cc1Cl [Example 142] | inhibition at 1 µM | 0 to 25% |

Proceed to the following item.
stdin: For the compound NC(=O)c1ccn(C(=O)N2CCC3(CCN(Cc4ccc(N5CCOCC5)cc4C(F)(F)F)C3)C2)n1 (stereo not shown) [Example 436] , give its measured inhibition at 1 µM value.
stdout: > 75%

----------
target: MAGL (Mus musculus); assay: In vitro competitive activity-based protein profiling, MAGL, mouse; settings: read-out: MAGL % inh. 1 μM (mouse)
Each entry below carries its reported inhibition at 1 µM.

| COMPOUND_STRUCTURE_STRING | inhibition at 1 µM |
| --- | --- |
| C[C@@H]1CN(Cc2cc(F)cc(Oc3ccccc3Cl)c2)CCN1C(=O)n1ccc(C(=O)O)n1 | > 75% |
| O=C(O)c1ccn(C(=O)N2CCN(Cc3cccc(C(F)(F)F)c3N3CCOCC3)CC2)n1 | > 75% |
| NC(=O)C1CCN(c2cc(C(F)(F)F)ccc2CN2CCN(C(=O)n3ccc(C(=O)O)n3)CC2)CC1 | > 75% |
| O=C(O)c1ccn(C(=O)N2C[C@H]3C[C@@H](OCc4ccccc4Cl)C[C@H]3C2)n1 | 0 to 25% |
| O=C(O)c1ccn(C(=O)N2C[C@H]3C[C@H](OCc4cccc(-c5ccccc5)c4)C[C@H]3C2)n1 | > 75% |
| O=C(O)c1ccn(C(=O)N2C[C@H]3C[C@H](Oc4ccccc4-c4cccnc4)C[C@H]3C2)n1 | > 75% |

Okay, next one:
stdin: State its inhibition at 1 µM for this compound: O=C(O)c1ccn(C(=O)N2CCC3(CCN(Cc4cc(F)cc(F)c4)C3)CC2)n1
stdout: 0 to 25%
